# Test system: LXFL 529
# assayName: NCI tumour cell line growth inhibition, 48 h
Activity calls are given as the source filed them. No stated cut-off is given here; in the data, active = GI50 up to about 1.1 µM and inactive = higher.
valueType: GI50

Sample answers from the record:
{"compound": "Cc1c2c(cc3c(=O)ccn(CCN(C)C)c13)c(=O)ccn2CCN(C)C", "GI50": "4.46 µM (inactive)"}
{"compound": "O=C1C(c2ccccc2)=[N+]([O-])c2ccc(Cl)cc21", "GI50": "13.6 µM (inactive)"}
{"compound": "CC(C)(C)OC(=O)C1=C(O)C(C(=O)OC(C)(C)C)C23CCCCC12C(C(=O)OC(C)(C)C)C(O)=C3C(=O)OC(C)(C)C (stereo not given)", "GI50": "> 100 µM (inactive)"}
{"compound": "O=C1c2ccccc2C(=O)c2nc3c(O)cccc3cc21", "GI50": "4.57 µM (inactive)"}

Alright, here's another compound for you.
Req: // returns reported GI50 for input Cc1ccccc1NC(=O)C(=O)C(C#N)c1ccccc1C (stereo not given)
Resp: > 100 µM (inactive)
